Just for reference, patent US12655116B2 is where these values come from.

pest or weed control at 80 g/ha values by entry
Test system: STEME
assay_method_text: Pre-emergence herbicidal action against STEME
Assay type: in vivo, Stellaria media
measurement_setup: Stellaria media, 504 h, dosage 80 g/ha

compound: CNC(=O)c1c(C(F)F)ccc(C(=O)Nc2nnnn2C)c1C [Example 1-44]
pest or weed control at 80 g/ha [%]: 90
--
compound: Cn1nnnc1NC(=O)c1ccc(C(F)(F)F)c(C(=O)NC2CC2)c1Br [Example 1-209]
pest or weed control at 80 g/ha [%]: 90
--
compound: Cn1nnnc1NC(=O)c1ccc(C(F)(F)F)c(C(=O)NC2CC2)c1Cl [Example 1-131]
pest or weed control at 80 g/ha [%]: 100
--
compound: CCNC(=O)c1c(C(F)(F)F)ccc(C(=O)Nc2nnnn2CC)c1SC [Example 2-82]
pest or weed control at 80 g/ha [%]: 100
--
compound: CCCn1nnnc1NC(=O)c1ccc(C(F)(F)F)c(C(=O)NC)c1Cl [Example 3-129]
pest or weed control at 80 g/ha [%]: 100
--
compound: CCn1nnnc1NC(=O)c1ccc(C(F)(F)F)c(C(=O)NC2CC2)c1C [Example 2-27]
pest or weed control at 80 g/ha [%]: 100
--
compound: CNC(=O)c1c(C(F)(F)F)ccc(C(=O)Nc2nnc(C)o2)c1Cl [Example 6-116]
pest or weed control at 80 g/ha [%]: 100
--
compound: CCNC(=O)c1c(C(F)(F)F)ccc(C(=O)Nc2nnnn2CC)c1C [Example 2-26]
pest or weed control at 80 g/ha [%]: 100
--
compound: CCn1nnnc1NC(=O)c1ccc(C(F)(F)F)c(C(=O)NC2CC2)c1Cl [Example 2-131]
pest or weed control at 80 g/ha [%]: 100
--
compound: CCn1nnnc1NC(=O)c1ccc(C(F)(F)F)c(C(=O)NC(C)=O)c1Cl [Example 2-337]
pest or weed control at 80 g/ha [%]: 90
--
compound: CNC(=O)c1c(C(F)(F)F)ccc(C(=O)Nc2nnnn2C)c1C [Example 1-25]
pest or weed control at 80 g/ha [%]: 90
--
compound: CCNC(=O)c1c(C(F)(F)F)ccc(C(=O)Nc2nnnn2C)c1C [Example 1-26]
pest or weed control at 80 g/ha [%]: 100
--
compound: CCCn1nnnc1NC(=O)c1ccc(C(F)(F)F)c(C(=O)NCC)c1C [Example 3-26]
pest or weed control at 80 g/ha [%]: 100
--
compound: CCn1nnnc1NC(=O)c1ccc(C(F)F)c(C(=O)NC2CC2)c1Cl [Example 2-149]
pest or weed control at 80 g/ha [%]: 100
